Study target: CYP3A4 (Homo sapiens, UniProt P08684)
Sequence (P08684 whole entry): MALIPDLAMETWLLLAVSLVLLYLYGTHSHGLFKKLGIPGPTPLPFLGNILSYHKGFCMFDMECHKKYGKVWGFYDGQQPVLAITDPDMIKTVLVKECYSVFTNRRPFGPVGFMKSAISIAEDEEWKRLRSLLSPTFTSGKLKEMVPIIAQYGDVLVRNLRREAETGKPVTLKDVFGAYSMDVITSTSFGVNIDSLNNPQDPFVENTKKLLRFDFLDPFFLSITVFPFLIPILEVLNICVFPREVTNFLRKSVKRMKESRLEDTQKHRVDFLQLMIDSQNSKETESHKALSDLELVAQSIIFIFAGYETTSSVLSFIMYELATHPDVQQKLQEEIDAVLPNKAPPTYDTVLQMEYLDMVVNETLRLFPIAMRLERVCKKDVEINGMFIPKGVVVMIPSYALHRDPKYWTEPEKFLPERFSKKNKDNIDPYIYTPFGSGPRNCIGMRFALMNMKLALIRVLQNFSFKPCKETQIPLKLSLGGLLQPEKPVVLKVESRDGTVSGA
Protocol notes: CYP3A4 Supersome mediated EET biosynthesis
Format: biochemical
Parameters: purchased Corning; host or cells: insect cells (microsomes)
Protocol conditions: FIG. 1; (±)8,9-EET; curve fitting; read-out: IC50 for (±)8,9-EET biosynthesis

Compound	IC50, µM
CCCCCCNC(=N)NC(=N)NCC12C3C4C5C3C1C5C42 (stereo not shown) [HCB, Hexyl Cubanomethyl Biguanide]	64.8

----------
Protocol notes: Toxicity / tolerance of dosing in mice
Format: in vivo
Protocol conditions: mouse, in vivo; ip, 4 times per week, no more than 2 consecutive days

Compound	Units	MTD
CCCCCCNC(=N)NC(=N)NCc1ccccc1 [HBB, N1-hexyl-N5-benzyl-biguanide]	mg/kg	6

----------
Protocol notes: Pharmacokinetics in mice plasma (LC-MS/MS)
Type: in vivo
Protocol conditions: mouse, plasma, sc

Compound	Units	Cmax
CCCCCCNC(=N)NC(=N)NCc1ccccc1 [HBB, N1-hexyl-N5-benzyl-biguanide]	µg/mL	1.86

----------
Study target: UniProt P08684
Protocol notes: CYP3A4 Supersome mediated EET biosynthesis
Assay type: biochemical
Parameters: purchased Corning; host or cells: insect cells (microsomes)
Protocol conditions: (±)-14,15-EET; read-out: Ki, inhibition of biosynthesis of (±)-14,15-EET
pKi: −log10 of the molar value.

Molecule	Study target	pKi
CCCCCCNC(=N)NC(=N)NCC12C3C4C5C3C1C5C42 (stereo not shown) [HCB, Hexyl Cubanomethyl Biguanide]	UniProt P08684	5.33

----------
System: EO771
Protocol notes: Inhibition of mammary carcinoma cell line EO771
Format: cell-based, mouse (C57BL/6)
Protocol conditions: Mus musculus; Table 5; EO771, C57BL/6, Basal, HER2−

Molecule	Units	IC50
CCCCCCNC(=N)NC(=N)NCc1ccccc1 [HBB, N1-hexyl-N5-benzyl-biguanide]	µM	21.7
